biological target: Purine nucleoside phosphorylase (Homo sapiens); assay: Competitive inhibition of PNP in human AML cells obtained from patients using MSEG as substrate by Dixon-plot analysis; type: cell-based
Parameter: Ki (nM)

> print(dat)
                               smiles.entry   u  observed
1  Nc1nc2c(ncn2[C@H]2CCN(C(=O)P(=O)(O)O)C2)c(=O)[nH]1  nM        60
2  Nc1nc2c(ncn2[C@@H]2CN(C(=O)P(=O)(O)O)C[C@@H]2O)c(=O)[nH]1  nM        12

====

Target: Purine nucleoside phosphorylase (Homo sapiens, UniProt P00491)
Sequence (P00491 whole entry): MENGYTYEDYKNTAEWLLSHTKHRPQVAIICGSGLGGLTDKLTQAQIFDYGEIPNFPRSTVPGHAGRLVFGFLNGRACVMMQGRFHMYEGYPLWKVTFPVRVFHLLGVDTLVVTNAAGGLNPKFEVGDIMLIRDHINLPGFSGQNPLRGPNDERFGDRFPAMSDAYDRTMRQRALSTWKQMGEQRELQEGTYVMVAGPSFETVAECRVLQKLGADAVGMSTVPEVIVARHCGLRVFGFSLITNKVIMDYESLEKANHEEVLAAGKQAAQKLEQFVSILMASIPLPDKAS
Assay: Competitive inhibition of PNP in human HBL2 cells using MSEG as substrate by Dixon-plot analysis
Format: cell-based
Attribute: Ki
Parameter: Ki (nM)

> print(dat)
                               smiles.entry  parameter   u  observed
1  Nc1nc2c(ncn2[C@@H]2CN(C(=O)P(=O)(O)O)C[C@@H]2O)c(=O)[nH]1         Ki  nM        16
2  Nc1nc2c(ncn2[C@H]2CCN(C(=O)P(=O)(O)O)C2)c(=O)[nH]1         Ki  nM        98
